test system: MDA-MB-468; assay: Growth inhibition of human MDA-MB-468 cells incubated for 48 hrs by sulforhodamine B assay; type: functional; settings: MDA-MB-468, 48 h
Readings of GI50 for the listed molecules
Reply with just the number (in nM).

Please review the following examples before continuing.
smilesInput	unitsOfMeasure	recordedNumber
C=C1C(=O)O[C@@H]2[C@H]3O[C@]3(C)CC/C=C(/COC(=O)c3cc4cc(OC)ccc4[nH]3)CC[C@@H]12	nM	1130
C=C1C(=O)O[C@@H]2[C@H]3O[C@]3(C)CC/C=C(/COC(=O)c3cn(C)c4ccccc34)CC[C@@H]12	nM	440
C=C1C(=O)O[C@@H]2[C@H]3O[C@]3(C)CC/C=C(/COC(=O)CCCc3c[nH]c4ccccc34)CC[C@@H]12	nM	1760

Consider now this further molecule.
Request - read-out GI50 | tested on MDA-MB-468 | molecule `C=C1C(=O)O[C@@H]2[C@H]3O[C@]3(C)CC/C=C(/COC(=O)c3cc4cc(F)ccc4[nH]3)CC[C@@H]12`
1860
